experiment.description: recombinant UMI read abundance after kanamycin selection (control-corrected) (log10(CPM+1)); higher = more efficient recombination; extreme values may be limits of the assay; sequences stand for … in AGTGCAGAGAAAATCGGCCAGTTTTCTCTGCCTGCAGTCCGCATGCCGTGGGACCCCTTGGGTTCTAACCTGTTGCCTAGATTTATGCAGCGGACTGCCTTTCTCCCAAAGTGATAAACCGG…AGGTTGGTTTCACT; site = the 11-nt donor
Catalogue of recombinant UMI read abundance (log10) values
# print the numeric value only

Example entries and their recorded answers appear below.
[
  {
    "sequence.record": "GGGGCACCATGGACCGGTTTTCCCGGTAATCCGTATTTGCG (site GGGGCACCTAG)",
    "observed.result": 0.0129
  },
  {
    "sequence.record": "TCCACCGCATGGACCGGTTTTCCCGGTAATCCGTATTTGCG (site TTCACCGCTCG)",
    "observed.result": 0.00717
  },
  {
    "sequence.record": "CAAGGGCCATGGACCGGTTTTCCCGGTAATCCGTATTTGTG (site CAAGCGCCTCA)",
    "observed.result": 0.0177
  },
  {
    "sequence.record": "CGGAGTCCATGGACCGGTTTTCCCGGTAATCCGTATTTGTT (site CGGAATCCTAA)",
    "observed.result": 0.767
  },
  {
    "sequence.record": "TCATGCTCATGGACCGGTTTTCCCGGTAATCCGTATTTGCA (site TCATTCTCTTG)",
    "observed.result": 0
  },
  {
    "sequence.record": "GGTGAAGCATGGACCGGTTTTCCCGGTAATCCGTATTTGAG (site GGTGAAGCTCT)",
    "observed.result": 1.82
  },
  {
    "sequence.record": "CAAGTCACATGGACCGGTTTTCCCGGTAATCCGTATTTGTG (site CAAGTCACTCG)",
    "observed.result": 0.151
  },
  {
    "sequence.record": "CGTCTGACATGGACCGGTTTTCCCGGTAATCCGTATTTGAC (site CGTCTGACTGT)",
    "observed.result": 0.908
  }
]

// query Look up recombinant UMI read abundance (log10): AGGAATCCATGGACCGGTTTTCCCGGTAATCCGTATTTGCT (site CGGAATCCTAA)
// result 0.0057

----------
experiment.description: recombinant barcode read abundance after kanamycin selection (control-corrected) (log10(CPM+1)); higher = more efficient recombination; sequences stand for … in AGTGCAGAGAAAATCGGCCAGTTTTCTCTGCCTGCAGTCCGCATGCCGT…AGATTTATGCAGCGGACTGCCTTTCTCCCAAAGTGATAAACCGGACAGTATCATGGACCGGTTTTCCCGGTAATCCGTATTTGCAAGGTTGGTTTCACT; site = the 11-nt target
Catalogue of recombinant barcode read abundance (log10) values
# print the numeric value only

[
  {
    "sequence.record": "GGTCGTGCTTGGGTTCTAACCTGTTGCCT (site GGTCGAGCTAG)",
    "observed.result": 0.304
  },
  {
    "sequence.record": "CACTTGACTTGGGTTCTAACCTGTTGCCT (site CACTTGCCTAG)",
    "observed.result": 0.213
  },
  {
    "sequence.record": "TAGTATCCTTGGGTTCTAACCTGTTGCGT (site TAGTTTCCTAC)",
    "observed.result": 0.21
  },
  {
    "sequence.record": "GGTCCCGCTTGGGTTCTAACCTGTTGCCA (site GGTCCCGCTTG)",
    "observed.result": 1.77
  },
  {
    "sequence.record": "TGTCCCGCTTGGGTTCTAACCTGTTGCCT (site TGTCCCGCTAG)",
    "observed.result": 0.708
  }
]

Now take the following sequence into account.
// query Look up recombinant barcode read abundance (log10): AGCGGGCCTTGGGTTCTAACCTGTTGCCT (site AGCGGTCCTAG)
// result 0.072
